- System: Min/+ mouse model of intestinal cancer
- assayComment: Intestinal polyp formation in the Min/+ mouse model of intestinal cancer
- Assay type: in vivo
- conditionDetails: Min/+ mice; 10 g/day human equivalent dose (3% wt.) or sulindac 320 ppm; seven weeks; mean ± SEM
Marks after values point to notes of the source that are not given here.
# maps each entry to its Avg. small intestine tumor size
endpoint: Avg. small intestine tumor size

{"compound": "CC1=C(CC(=O)O)c2cc(F)ccc2/C1=C\\c1ccc([S+](C)[O-])cc1 (centres unmarked)", "reading": "1.25 ± 0.29^ab mm"}
{"compound": "CC/C=C\\C/C=C\\C/C=C\\C/C=C\\C/C=C\\CCCC(=O)O", "reading": "1.05 ± 0.03^b mm"}
{"compound": "CC/C=C\\C/C=C\\C/C=C\\C/C=C\\CCCCC(=O)O", "reading": "1.07 ± 0.02^ab mm"}
{"compound": "CC/C=C\\C/C=C\\C/C=C\\C/C=C\\C/C=C\\C/C=C\\CCC(=O)O", "reading": "1.16 ± 0.04^ab mm"}
{"compound": "CCCCC/C=C\\C/C=C\\C/C=C\\CCCCC(=O)O", "reading": "1.30 ± 0.04^ab mm"}
